Protocol Text: cells
Condition Details: Cricetulus griseus, RT16, 96 h
IC50 listing for selected molecules.
Property: IC50 (nM)

In [3]: df
Out[3]:
                                   molecule  property  readout_value
0  Nc1nc(N)c2nc(CNc3ccc(C(=O)N[C@@H](CCCNC(=O)c4ccccc4C(=O)O)C(=O)O)cc3)cnc2n1 [TALOTREXIN]      IC50            409
1  Nc1nc2[nH]c(CCCCc3ccc(C(=O)N[C@@H](CCC(=O)O)C(=O)O)s3)cc2c(=O)[nH]1      IC50           1.82
